Items are presented alongside their recorded Kd.
Target: SARS-CoV-2 spike RBD (WT) (Severe acute respiratory syndrome …, UniProt P0DTC2)
Experiment: BLI
Report as a plain number; the unit nM is understood.

BINDER | TEST_VALUE
D001 (antibody, V domains shown) VH: QVQLVESGGGVVQPGRSLRLSCAASGFTFSSYGMHWVRQAPGKGLEWVAVISYDGSNKYYVDSVKGRFTISRDNSKNTLYLQMNSLRAEDTAVYYCAKEGGSYYGGGGYFDYWGQGTLVTVSS VL: DIQMTQSPSSLSASVGDRVTITCQASQDISNYLHWYQQKPGKAPKLLIYDASNLETGVPSRFSGSGSGTDFTLTISSLQPEDIATYYCQQYDNLPYTFGQGTKLEIK | 16.6
C2736 (antibody, V domains shown) VH: QVQLVQSGAEVKKPGSSVKVSCKASGGTFSSYAISWVRQAPGQGLEWMGGIIPIFGTANYAQKFQGRVTITADESTSTAYMELSSLRSEDTAVYYCASCRYYYDSSGYAQPEDYFDYWGQGTLVTVSS VL: QSVLTQPPSVSGAPGQRVTISCTGSSSNIGAGYDVHWYQQLPGTAPKLLIYGNSNRPSGVPDRFSGSKSGTSASLAITGLQAEDEADYYCQSYDSSLSGSHVVFGGGTKLTVL | 6.14
C2722 (antibody, V domains shown) VH: EVQLVESGGGLVQPGGSLRLSCAASGFTFSSYSMNWVRQAPGKGLEWVSYISSSSSTIYYADSVKGRFTISRDNAKNSLYLQMNSLRAEDTAVYYCARDDGGGAYYDFWSGYYGDYWGQGTLVTVSS VL: EIVLTQSPATLSLSPGERATLSCRASQSVSSYLAWYQQKPGQAPRLLIYDASNRATGIPARFSGSGSGTDFTLTISSLEPEDFAVYYCQQRSNWPPFTFGPGTKVDIK | 43.3

If you can, please state the reported Kd value of D103 (antibody, V domains shown) VH: QVQLVESGGGVVQPGRSLRLSCAASGFTFSSYGMHWVRQAPGKGLEWVAVISYDGSNKYYADSVKGRFTISRDNSKNTLYLQMNSLRAEDTAVYYCAKGGYYDSSAYYGPLDYWGQGTLVTVSS VL: SYVLTQPPSVSVAPGKTARITCGGNNIGSKSVHWYQQKPGQAPVLVVYDDSDRPSGIPERFSGSNSGNTATLTISRVEAGDEADYYCQVWDSSSDHWVFGGGTKLTVL .
2700

I would be grateful if you could share the reported Kd for D165 (antibody, V domains shown) VH: QVQLVQSGAEVKKPGASVKVSCKASGYTFSNYVINWVRQAPGQRPEWMGWINADNGHTVYSQKLQGRVTITTDTSASEAYMELSGLRSEDTAVYYCARGREDYYNNEPYGMDVWGQGTTVTVSS VL: DIQMTQSPSSLSASVGDRVTITCRASQTISNYLNWYQQKPGQAPKLLIFAASSLQTGVPSRFSGSGSGTTFTLTISSLQPEDFATYYCQQSYGSLYTFGQGTKLDIK .
117

Any idea what Kd was measured for D164 (antibody, V domains shown) VH: QVQLVQSGAEVKKPGASVKVSCKASGYTFTSYYMHWVRQAPGQGLEWMGIINPSGGSTSYAQKFQGRVTMTRDTSTSTVYMELSSLRSEDTAVYYCARGGIVPAATENFDYWGQGTLVTVSS VL: EIVLTQSPATLSLSPGERATLSCRASQSVSSYLAWYQQKPGQAPRLLIYDASNRATGIPARFSGSGSGTDFTLTISSLEPEDFAVYYCQQRSNWPITFGQGTRLEIK ?
194

Reported Kd, binder D058 (antibody, V domains shown) VH: QVQLQESGPGLVKPSETLSLTCTVSGYSISSGYYWGWIRQPPGKGLEWIGSIYHSGSTYYNPSLKSRVTISVDTSKNQFSLKLSSVTAADTAVYYCARDFPLTLYGVLISDAFDIWGQGTMVTVSS VL: SYELTQPPSVSVSPGQTARITCSADALPKQYAYWYQQKPGQAPVLVIYKDSERPSGIPERFSGSSSGTTVTLTISGVQAEDEADYYCQSADSSGKVFGGGTKLTVL : ____
24.1

Requested field: Kd. Item: D070 (antibody, V domains shown) VH: EVQLVESGGGLVQPGGSLRLSCAASGFTFSSYEMNWVRQAPGKGLEWVSYISSSGSTIYYADSVKGRFTISRDNAKNSLYLQMNSLRAEDTAVYYCARVPRGYYDSSGYYYVGYYFDYWGQGTLVTVSS VL: DIQLTQSPSFLSASVGDRVTITCRASQGISSYLAWYQQKPGKAPKLLIYAASTLQSGVPSRFSGSGSGTEFTLTISSLQPEDFATYYCQQLNSYTFTFGPGTKVDIK
115

Given the binder C2743 (antibody, V domains shown) VH: QVQLVQSGAEVKKPGASVKVSCKASGYTFTSYGISWVRQAPGQGLEWMGWISAYNGNTNYAQKLQGRVTMTTDTSTSTAYMELRSLRSDDTAVYYCARDFGELATPLDYWGQGTLVTVSS VL: EIVLTQSPATLSLSPGERATLSCRASQSVSSYLAWYQQKPGQAPRLLIYDASNRATGIPARFSGSGSGTDFTLTISSLEPEDFAVYYCQQRSNSLTFGGGTKVEIK , what is its reported Kd?
18.5

So what's the measured Kd for this one? D008 (antibody, V domains shown) VH: QVQLVESGGGVVQPGRSLRLSCAASGFTFRSYGMHWVRQAPGKGLEWVAVISYDGSTKYYADSVKGRFTISRDNSKNTLYLQMNSLRAEDTAVYYCAKGGYYYDSNTYYVYWGQGTLVTVSS VL: DIQMTQSPSSLSASVGDRVTITCQASQDISNHLNWYQQKPGKAPKLLIYDASNLETGVPSRFSGSGSGTDFTFTISSLQPEDIATYYCQQYDNLPPITFGQGTRLEIK
10.5
